System: HT-29
test_summary: NCI tumour cell line growth inhibition, 48 h
Calls of active or inactive are those of the source. No stated cut-off is given here; in the data, active = GI50 up to about 1.1 µM and inactive = higher. Positions of bridges follow the written chain, without caps; N, C: chain ends. Residues, ends and D or L forms follow the SMILES beside them.
Thanks in advance; please answer with one of these: T (active), F (inactive)

Look up the recorded call for `COc1cc2c3c(c1OC)C(=O)C(=O)C1=C3N(CCC1)CC2` in this test.
F

Look up the recorded call for `CCOC(=O)c1cc2c([N+](=O)[O-])c(N)ccc2s1` in this test.
F

Look up the recorded call for `O=C(CNc1ccccc1C(=O)O)Nn1cnc2ccc(S(=O)(=O)Nc3ccccc3C(=O)O)cc2c1=O` in this test.
F

Look up the recorded call for C=CCO[C@H]1CC[C@@]2(C)C(CC[C@]3(C)C2CC=C2[C@@H]4[C@@H](C)C(C)CC[C@]4(C(=O)O)CCC23C)C1(C)C (stereo not given in full) in this test.
F

Look up the recorded call for S=P1(c2ccccc2)Nc2ccc(Cl)cc2N1 (stereo not given) in this test.
F

Look up the recorded call for `Cc1c(C(=O)O)n2cnnc2c2ccccc12` in this test.
F

Look up the recorded call for CCCCC(=O)OCC(=O)[C@]1(O)Cc2c(O)c3c(c(O)c2[C@@H](OC2CC(NC(=O)C(F)(F)F)C(O)C(C)O2)C1)C(=O)c1c(OC)cccc1C3=O (stereo not given in full) in this test.
T

Look up the recorded call for `Cc1cc(N(CCC#N)CCC#N)ccc1/N=N/c1ccc(S(N)(=O)=O)cc1` in this test.
F

Look up the recorded call for `CCN(CCCl)c1cc(CN(C)C)cc(NC(=O)C23CCC(C(=O)Nc4cc(CN(C)C)cc(N(CC)CCCl)c4)(CC2)CC3)c1` in this test.
T

Look up the recorded call for `CCOC(=O)/C(C#N)=C/c1ccc2c(-c3c(OCC)ccc4cc(/C=C(\C#N)C(=O)OCC)ccc34)c(OCC)ccc2c1` in this test.
F

Look up the recorded call for COC(=O)C1CCC(=O)NCCCCC(NC(=O)C(N)CC(=O)O)C(=O)N1 (stereo not drawn) (H-Asp-Lys-Glu-OMe; lactam 2-3; configuration not given here) in this test.
F
